- assay.procedure: Plasma BCV PK following single dose oral tablet administration (Table 105)
- Assay type: in vivo
- conditions: human, plasma, po, 200 mg, 200 mg Oral Tablet, N = 15, geometric mean
readout.kind: AUC(0-inf) (ng·h/mL)
Hi! Could you send only the number? It should be in ng·h/mL, unit omitted.

INPUT: Indicate its recorded AUC(0-inf); the molecule in question is `CCCCCCCCCCCCCCCCOCCCOP(=O)(O)CO[C@H](CO)Cn1ccc(N)nc1=O`
OUTPUT: 3310

---

- assay.procedure: IV BCV single ascending dose study: plasma BCV and CDV PK
- Format: in vivo, human
- conditions: human, plasma, iv, 25 mg, plasma BCV, Cohort 2, BCV 25 mg 2 h IV infusion, n = 6
readout.kind: clearance (mL/min)
Hi! Could you send only the number? It should be in mL/min, unit omitted.

INPUT: Indicate its recorded clearance; the compound in question is `CCCCCCCCCCCCCCCCOCCCOP(=O)(O)CO[C@H](CO)Cn1ccc(N)nc1=O`
OUTPUT: 144

---

- assay.procedure: Phase 2 toxicokinetics of brincidofovir and cidofovir in plasma
- Assay type: in vivo, Sprague-Dawley CD rats
- conditions: male, Sprague-Dawley CD, rat, plasma, iv, 15 mg/kg, brincidofovir in plasma; 15 mg/kg 2-hour IV infusion, Male rats, Day 7; read-out: Tmax
readout.kind: Tmax (h)
Hi! Could you send only the number? It should be in h, unit omitted.

INPUT: Indicate its recorded Tmax; the compound in question is `CCCCCCCCCCCCCCCCOCCCOP(=O)(O)CO[C@H](CO)Cn1ccc(N)nc1=O`
OUTPUT: 2

---

- assay.procedure: Phase 2 toxicokinetics of brincidofovir and cidofovir in plasma
- Format: in vivo, Sprague-Dawley CD rats
- conditions: female, Sprague-Dawley CD, rat, plasma, iv, 1 mg/kg, brincidofovir in plasma; 1 mg/kg 2-hour IV infusion, Female rats, Day 1
readout.kind: AUC(0-t) (ng·h/mL)
Hi! Could you send only the number? It should be in ng·h/mL, unit omitted.

INPUT: Indicate its recorded AUC(0-t); the compound in question is CCCCCCCCCCCCCCCCOCCCOP(=O)(O)CO[C@H](CO)Cn1ccc(N)nc1=O [Brincidofovir]
OUTPUT: 459

---

- assay.procedure: 28-day study toxicokinetics of brincidofovir and CDV in plasma
- Type: in vivo, Sprague-Dawley CD rats
- conditions: both sexes, Sprague-Dawley CD, rat, in vivo, 15 mg/kg, plasma brincidofovir; Day 1; 15 mg/kg; combined male and female; Mean; read-out: Clast
readout.kind: concentration at 8 h (ng/mL)
Hi! Could you send only the number? It should be in ng/mL, unit omitted.

INPUT: Indicate its recorded concentration at 8 h; the molecule in question is `CCCCCCCCCCCCCCCCOCCCOP(=O)(O)CO[C@H](CO)Cn1ccc(N)nc1=O`
OUTPUT: 9.68

---

- assay.procedure: Comparison of toxicity of orally and intravenously administered brincidofovir (rat intestine)
- Format: in vivo
- conditions: rat, in vivo; oral, single dose 1000 mg/kg; read-out: Exposure AUC
readout.kind: AUC (ng·h/mL)
Hi! Could you send only the number? It should be in ng·h/mL, unit omitted.

INPUT: Indicate its recorded AUC; the compound in question is `CCCCCCCCCCCCCCCCOCCCOP(=O)(O)CO[C@H](CO)Cn1ccc(N)nc1=O`
OUTPUT: 26400
